# target-or-system: c-Src SH2
# experiment-description: SH2 binding enrichment of the phosphorylated peptide, bacterial display (enrichment ratio); higher = better substrate or ligand; peptides without Tyr show the background
observed-property: SH2 binding enrichment

TDIVAYSGWVQ [SPTBN2_Y477_R480W]	0.642

P: LLKKIYLMLDN [STAT1_Y203_M202I]
Q: LVMFIYDIFGM [SCN1A_Y1684_A1685D]
Prompt: Could you check which of P and Q has a smaller value for SH2 binding enrichment? Reply briefly: the label of your chosen item.
Completion: P
(P: 0.896, Q: 1.67)

I: EERKTYVNTML [TEK_Y1102_T1106M]
II: HHIDYYKKTTN [FGFR1_Y654]
III: RLLVVYPWTER [HBB_Y36_Q40E]
IV: KKFFSYAWPFF [BRDT_Y291_H288Y_YF]
Prompt: Hello, I need these entries ordered by SH2 binding enrichment, highest reading first. Thanks! Arrange the labels as the request states and list them.
Completion: III, IV, I, II

----------
# target-or-system: Jak2 (UniProt O60674)
# Sequence (O60674 whole entry, looked up): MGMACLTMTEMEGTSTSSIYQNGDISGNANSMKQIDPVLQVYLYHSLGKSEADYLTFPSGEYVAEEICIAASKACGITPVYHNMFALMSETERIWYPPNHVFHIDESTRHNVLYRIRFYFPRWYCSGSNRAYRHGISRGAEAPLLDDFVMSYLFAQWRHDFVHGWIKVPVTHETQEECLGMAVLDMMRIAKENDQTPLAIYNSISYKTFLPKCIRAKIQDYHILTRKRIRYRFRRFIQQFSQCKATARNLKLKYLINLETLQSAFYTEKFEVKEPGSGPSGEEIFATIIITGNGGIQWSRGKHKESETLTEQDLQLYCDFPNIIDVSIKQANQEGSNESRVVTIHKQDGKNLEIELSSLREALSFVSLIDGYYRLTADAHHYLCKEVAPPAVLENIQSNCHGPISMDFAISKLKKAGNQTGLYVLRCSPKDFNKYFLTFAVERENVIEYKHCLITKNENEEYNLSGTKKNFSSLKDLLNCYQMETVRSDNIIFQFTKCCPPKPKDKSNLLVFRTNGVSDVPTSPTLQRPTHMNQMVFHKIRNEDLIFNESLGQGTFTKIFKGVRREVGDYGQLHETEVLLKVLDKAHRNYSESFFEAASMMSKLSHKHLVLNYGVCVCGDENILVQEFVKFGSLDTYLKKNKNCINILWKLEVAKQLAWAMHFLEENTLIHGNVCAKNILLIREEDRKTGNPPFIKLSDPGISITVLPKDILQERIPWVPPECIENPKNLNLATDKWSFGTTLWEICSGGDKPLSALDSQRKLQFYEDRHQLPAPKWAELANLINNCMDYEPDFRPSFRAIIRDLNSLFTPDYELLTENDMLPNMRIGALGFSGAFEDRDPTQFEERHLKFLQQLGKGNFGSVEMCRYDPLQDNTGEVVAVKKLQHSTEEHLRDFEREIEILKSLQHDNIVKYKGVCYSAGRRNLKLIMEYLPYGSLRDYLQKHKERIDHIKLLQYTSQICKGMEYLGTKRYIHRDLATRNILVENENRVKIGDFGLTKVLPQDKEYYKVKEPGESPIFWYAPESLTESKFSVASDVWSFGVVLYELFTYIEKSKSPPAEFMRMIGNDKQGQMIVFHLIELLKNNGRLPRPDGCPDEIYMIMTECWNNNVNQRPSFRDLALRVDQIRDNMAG
# experiment-description: phosphorylation enrichment, bacterial display (enrichment ratio); higher = better substrate or ligand; peptides without Tyr show the background
observed-property: phosphorylation enrichment
# output: bare number, no unit

NDFGNYSNQSS [HNRNPA1_Y318_N319S]	0.546
PMWHPYKADVT [TP53TG5_Y255_V257A]	0.911

Prompt: Any idea what its phosphorylation enrichment is? The sequence is GFAIVYGTIIL [GPR179_Y460]
Completion: 1.28

Prompt: Any idea what its phosphorylation enrichment is? The sequence is NDKLRYEVSSP [CDH13_Y66]
Completion: 0.884

----------
# target-or-system: SHP2-C SH2
# experiment-description: SH2 binding enrichment of the phosphorylated peptide, bacterial display (enrichment ratio); higher = better substrate or ligand; peptides without Tyr show the background
observed-property: SH2 binding enrichment

FFRNVYHLASV [RBL1_Y796_K794N_YF]	0.629
GRLPEYNTRIA [CCDC151_Y542]	0.643
AKKIKYFEGVS [PRKDC_Y682]	0.83
HLATEYVFSDF [PANX1_Y10_Q5H]	0.884
TRDVNYGWVIR [MT-CYB_Y75_I78V]	0.604
YKGKKYKPLDL [RPL35_Y78]	0.955
NLSVPYDSSLK [ABCC8_Y1353_R1352P]	0.735

----------
# target-or-system: c-Src SH2
# experiment-description: SH2 binding enrichment of the phosphorylated peptide, bacterial display (enrichment ratio); higher = better substrate or ligand; peptides without Tyr show the background
observed-property: SH2 binding enrichment

A selection of reference data follows.
TKFRNYLIPKG [CYP2C8_Y379]	0.631
FSSLGYPLPEG [ZSWIM4_Y87_P89L_YF]	0.589
NSFKFYMSDDI [ATRX_Y204_C200S_YF]	0.604

P: LRNIDYFRLDG [ATRX_Y2083_YF]
Q: KPNMNYDKLSR [FLI1_Y332]
Prompt: Could you check which of P and Q has a smaller value for SH2 binding enrichment? Reply briefly: the label of your chosen item.
Completion: P

A: AQMAMYFWEMS [TRPM4_Y577_G582S]
B: PLDGEYSTLQI [TP53_Y327_F328S]
Prompt: Could you check which of A and B has a smaller value for SH2 binding enrichment? Reply briefly: the label of your chosen item.
Completion: B
